Source listed as paper PMC4648099.

# measurement.target: thrombin (alpha-thrombin) (UniProt P00734;P00734 328-363;364-622)
# method.notes: competition (FAM fluorescence displacement); fit of pair TBA-FAM/TBA-N8; 100 mM KCl; Fluorescence assays: 10 mM sodium cacodylate pH 7.2, 100 mM KCl, 20 °C, 20 nM FAM-aptamer (100 nM thrombin in displacement); EMSA: 1xTBE pH 8.3, 100 mM KCl (ann)
measurement.label: pKd
Bear in mind: pKd is minus log10 of a mol/L concentration; give just that figure.

Give its pKd value. Item: GGTTGGTGTGGTTGG (structured_DNA, 3' hexaethyleneglycol linker) [TBA-FAM] 7.74
